# Study Target: PD-1/PD-L1 interaction (Homo sapiens, UniProt Q9NZQ7)
# Construct: expressed in transfected cells; host or cells: CHO cells (aAPC-PD-L1) co-cultured with Jurkat cells overexpressing PD-1 and an NFAT-luciferase reporter
# Sequence (Q9NZQ7 19-290): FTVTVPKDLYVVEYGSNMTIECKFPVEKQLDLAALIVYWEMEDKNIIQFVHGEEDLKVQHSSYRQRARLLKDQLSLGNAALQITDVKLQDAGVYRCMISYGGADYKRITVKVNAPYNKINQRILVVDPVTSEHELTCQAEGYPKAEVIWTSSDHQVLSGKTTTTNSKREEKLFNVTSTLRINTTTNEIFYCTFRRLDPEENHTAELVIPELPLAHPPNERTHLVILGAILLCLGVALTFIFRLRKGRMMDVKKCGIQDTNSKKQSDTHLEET
# Assay Notes: PD-1/PD-L1 NFAT reporter co-culture assay
# Assay type: cell-based
# Experimental Parameters: Jurkat PD-1 NFAT-luciferase cells co-cultured with aAPC-PD-L1 CHO cells, 6 hrs at 37° C.; read-out: EC50 NFAT Luciferase
Please respond with label 1 when measured EC50 is strictly beneath 200 nM, and with label 0 in all other cases.

[[record]]
chemical_smiles = "Cc1c(COc2cc(OCc3cncc(C#N)c3)c(CNC[C@@H](O)CC(=O)O)cc2Cl)cccc1-c1cccc(-c2ccc(OCCNCCO)c(C(N)=O)c2)c1C"
category_label = "label 0"

[[record]]
chemical_smiles = "Cc1c(COc2ccc(CNC[C@@H](O)CC(=O)O)c(OCc3cncnc3)n2)cccc1-c1cccc(COc2ccc(CNC[C@@H](O)CC(=O)O)c(OCc3cncnc3)n2)c1C"
category_label = "label 0"

[[record]]
chemical_smiles = "Cc1c(COc2cc(OCc3cncc(C#N)c3)c(CN[C@@](C)(CO)C(=O)O)cc2Cl)cccc1-c1cccc(-c2ccc(O[C@@H]3CCNC[C@H]3F)cc2)c1Cl"
category_label = "label 0"

[[record]]
chemical_smiles = "COc1cc(-c2cccc(-c3cccc(-c4cc(F)c(CNC[C@@H]5CCC(=O)N5)c(OC)c4)c3Cl)c2Cl)cc(F)c1CNC[C@@H]1CCC(=O)N1"
category_label = "label 1"

[[record]]
chemical_smiles = "O=C1CC[C@@H](CNCc2ccc(-c3cccc(-c4cccc(-c5ccc(CNC[C@@H]6CCC(=O)N6)c(N6CCOCC6)c5)c4Cl)c3Cl)cc2N2CCOCC2)N1"
category_label = "label 0"

[[record]]
chemical_smiles = "COc1nc(O[C@H]2CCc3c(-c4cccc(-c5ccc(CNC[C@@H]6CCC(=O)N6)cc5)c4Cl)cccc32)c(Cl)cc1CN1CC[C@@H](C(=O)O)C1"
category_label = "label 1"

[[record]]
chemical_smiles = "COc1nc(-c2cccc(-c3cccc4c3CC[C@@H]4Oc3nc(OC)c(CN4CC[C@@H](C(=O)O)C4)cc3Cl)c2Cl)ccc1CNC[C@@H]1CCC(=O)N1"
category_label = "label 1"

[[record]]
chemical_smiles = "Cc1c(COc2nc(OCc3cc(C#N)ccn3)c(CNC[C@@H](O)CC(=O)O)cc2Br)cccc1-c1cccc(COc2nc(OCc3cc(C#N)ccn3)c(CNC[C@@H](O)CC(=O)O)cc2Br)c1C"
category_label = "label 1"

[[record]]
chemical_smiles = "Cc1c(COc2cc(OCc3cncc(C#N)c3)c(CNC[C@@H](O)C(=O)O)cc2Cl)cccc1-c1cccc(COc2cc(OCc3cncc(C#N)c3)c(CNC[C@@H](O)C(=O)O)cc2Cl)c1C"
category_label = "label 0"

[[record]]
chemical_smiles = "Cc1c(COc2cc(OCc3cncc(C#N)c3)c(CN[C@@](C)(CO)C(=O)O)cc2Cl)cccc1-c1cccc(-c2ccc(OCCN3CCC4(CCCNC4=O)CC3)cc2)c1C"
category_label = "label 1"

[[record]]
chemical_smiles = "CS(=O)(=O)c1cncc(COc2nc(O[C@H]3CCc4c(-c5cccc6c5CC[C@@H]6Oc5nc(OCc6cncc(S(C)(=O)=O)c6)c(CN6C[C@@H](O)CC6=O)cc5Cl)cccc43)c(Cl)cc2CNC[C@@H](O)CC(=O)O)c1"
category_label = "label 1"

[[record]]
chemical_smiles = "COc1nc(OCc2cccc(-c3cccc(COc4nc(OC)c(CN[C@@](C)(CO)C(=O)O)cc4Br)c3C)c2C)c(Br)cc1CN[C@@](C)(CO)C(=O)O"
category_label = "label 1"

[[record]]
chemical_smiles = "COc1nc(O[C@H]2CCc3c(-c4cccc(-c5ccc(C6=NCCN6)c(OC)n5)c4Cl)cccc32)c(Br)cc1CN[C@](C)(CO)C(=O)O"
category_label = "label 1"

[[record]]
chemical_smiles = "N#Cc1cncc(COc2cc(O[C@H]3CCc4c(-c5cccc(-c6ccc7sc(CNC[C@@H]8CCC(=O)N8)nc7c6)c5Cl)cccc43)c(Cl)cc2CNC[C@@H]2CCC(=O)N2)c1"
category_label = "label 0"

[[record]]
chemical_smiles = "C[C@@](CO)(NCc1ccc(O[C@H]2CCc3c(-c4cccc(-c5ccc(CNC[C@@H]6CCC(=O)N6)cc5)c4Cl)cccc32)nc1OCc1cncc(C#N)c1)C(=O)O"
category_label = "label 1"

[[record]]
chemical_smiles = "Cc1c(COc2cc(OCc3cncc(C#N)c3)c(CNC[C@@H](O)CC(=O)O)cc2Cl)cccc1-c1cccc(-c2ccc3ncnc(NCCO)c3c2)c1C"
category_label = "label 0"

[[record]]
chemical_smiles = "CC[C@@H](NCc1cc(Cl)c(OCc2cccc(-c3cccc(COc4nc(OC)c(CN[C@H](CC)C(=O)O)cc4Cl)c3C)c2C)nc1OC)C(=O)O"
category_label = "label 1"

[[record]]
chemical_smiles = "CNC(=O)COc1nc(OCc2cccc(-c3cccc(COc4nc(OCC(=O)NC)c(CNC[C@@H](O)CC(=O)O)cc4Br)c3C)c2C)c(Br)cc1CNC[C@@H](O)CC(=O)O"
category_label = "label 0"

[[record]]
chemical_smiles = "Cc1c(COc2cc(OCc3cncc(C#N)c3)c(CN[C@@H](C)C(=O)O)cc2Cl)cccc1-c1cccc(-c2ccc(OCCN[C@@H](C)C(=O)O)c([N+](=O)[O-])c2)c1C"
category_label = "label 1"

[[record]]
chemical_smiles = "COc1cc(OCc2cccc(-c3cccc(COc4nc(OC)c(CNC5(C(=O)O)CCC5)cc4Cl)c3C)c2C)c(Cl)cc1CNC1(C(=O)O)CCC1"
category_label = "label 1"

[[record]]
chemical_smiles = "COc1nc(OCc2cccc(-c3cccc(COc4nc(OC)c(CNCC(C)(C)C(=O)O)cc4Cl)c3C)c2C)c(Cl)cc1CNCC(C)(C)C(=O)O"
category_label = "label 0"

